System: CHSA8926 (Chondrosarcoma)
Experiment: Bliss excess, mean over the matrix (fraction); higher = more synergy
Grouping rule (Bliss excess): A = under -0.04, B = from -0.04 up to -0.02, C = -0.02 and over

Hi, small favor: classify COc1nnc2ccc(N3CCC(c4ccc(OCCN5CCN(C)C(=O)[C@H]5C)cc4)CC3)nn12 [AZD5153] + C[C@@H]1COCCN1C2=NC(=NC(=C2)C3(CC3)[S@](=N)(=O)C)C4=C5C=CNC5=NC=C4 [AZD6738] (first compound max 1 µM, 7x7, partner max 10 µM) by its Bliss excess when you get a moment.
C

Hi, small favor: classify CC1(C)CCC(CN2CCN(c3ccc(C(=O)NS(=O)(=O)c4ccc(NCC5CCOCC5)c([N+](=O)[O-])c4)c(Oc4cnc5[nH]ccc5c4)c3)CC2)=C(c2ccc(Cl)cc2)C1 [Venetoclax] + C1CN(CCC1(C(=O)N[C@@H](CCO)C2=CC=C(C=C2)Cl)N)C3=NC=NC4=C3C=CN4 [Capivasertib] (first compound max 1 µM, 7x7, partner max 3 µM) by its Bliss excess when you get a moment.
B

Hi, small favor: classify COc1cc2ncnc(Nc3ccc(F)c(Cl)c3)c2cc1OCCCN1CCOCC1 [Gefitinib] + CC(C)n1c(=O)n(C)c2cnc3cc(F)c(-c4ccc(OCCCN5CCCCC5)nc4)cc3c21 [AZD1390] (first compound max 10 µM, 7x7, partner max 0.3 µM) by its Bliss excess when you get a moment.
A

Hi, small favor: classify Cn1cnc2c(F)c(Nc3ccc(Br)cc3Cl)c(C(=O)NOCCO)cc21 [Selumetinib] + C[C@@H]1COCCN1C2=NC(=NC(=C2)C3(CC3)[S@](=N)(=O)C)C4=C5C=CNC5=NC=C4 [AZD6738] (first compound max 10 µM, 7x7, partner max 10 µM) by its Bliss excess when you get a moment.
B

Hi, small favor: classify CC(=O)c1c(C)c2cnc(Nc3ccc(N4CCNCC4)cn3)nc2n(C2CCCC2)c1=O [Palbociclib] + CC1(C)CCC(CN2CCN(c3ccc(C(=O)NS(=O)(=O)c4ccc(NCC5CCOCC5)c([N+](=O)[O-])c4)c(Oc4cnc5[nH]ccc5c4)c3)CC2)=C(c2ccc(Cl)cc2)C1 [Venetoclax] (first compound max 10 µM, 7x7, partner max 1 µM) by its Bliss excess when you get a moment.
B

Hi, small favor: classify COc1nnc2ccc(N3CCC(c4ccc(OCCN5CCN(C)C(=O)[C@H]5C)cc4)CC3)nn12 [AZD5153] + Cc1c2c(nn1C)CSCc1cc(n(C)n1)CSc1cc(c3ccccc3c1)OCCCc1c(C(=O)O)n(C)c3c-2c(Cl)ccc13 [AZD5991] (first compound max 1 µM, 7x7, partner max 1 µM) by its Bliss excess when you get a moment.
C

Hi, small favor: classify Cc1nc(Nc2ncc(C(=O)Nc3c(C)cccc3Cl)s2)cc(N2CCN(CCO)CC2)n1 [Dasatinib] + CC(=O)Nc1cccc(-n2c(=O)n(C3CC3)c(=O)c3c(Nc4ccc(I)cc4F)n(C)c(=O)c(C)c32)c1 [Trametinib] (first compound max 2 µM, 7x7, partner max 1 µM) by its Bliss excess when you get a moment.
A

Hi, small favor: classify CC(=O)c1c(C)c2cnc(Nc3ccc(N4CCNCC4)cn3)nc2n(C2CCCC2)c1=O [Palbociclib] + Cc1c2c(nn1C)CSCc1cc(n(C)n1)CSc1cc(c3ccccc3c1)OCCCc1c(C(=O)O)n(C)c3c-2c(Cl)ccc13 [AZD5991] (first compound max 10 µM, 7x7, partner max 1 µM) by its Bliss excess when you get a moment.
A

Hi, small favor: classify C[C@@H](c1ccc2nccn2c1)n1nnc2ncc(-c3cnn(C)c3)nc21 [Savolitinib] + CC1(C)CCC(CN2CCN(c3ccc(C(=O)NS(=O)(=O)c4ccc(NCC5CCOCC5)c([N+](=O)[O-])c4)c(Oc4cnc5[nH]ccc5c4)c3)CC2)=C(c2ccc(Cl)cc2)C1 [Venetoclax] (first compound max 1 µM, 7x7, partner max 1 µM) by its Bliss excess when you get a moment.
C

Hi, small favor: classify CC1(C)CCC(CN2CCN(c3ccc(C(=O)NS(=O)(=O)c4ccc(NCC5CCOCC5)c([N+](=O)[O-])c4)c(Oc4cnc5[nH]ccc5c4)c3)CC2)=C(c2ccc(Cl)cc2)C1 [Venetoclax] + CN(C)CCCOc1ccc(-c2ccc3ncc4c(c3c2)n(C2CCOCC2)c(=O)n4C)cn1 [AZD0156] (first compound max 1 µM, 7x7, partner max 1 µM) by its Bliss excess when you get a moment.
B

Hi, small favor: classify Cc1c2c(nn1C)CSCc1cc(n(C)n1)CSc1cc(c3ccccc3c1)OCCCc1c(C(=O)O)n(C)c3c-2c(Cl)ccc13 [AZD5991] + CN(C)CCCOc1ccc(-c2ccc3ncc4c(c3c2)n(C2CCOCC2)c(=O)n4C)cn1 [AZD0156] (first compound max 1 µM, 7x7, partner max 1 µM) by its Bliss excess when you get a moment.
C

Hi, small favor: classify CN(CCO)CC[C@H](CSc1ccccc1)Nc1ccc(S(=O)(=O)NC(=O)c2ccc(N3CCC([C@@H](O)c4ccccc4-c4ccc(Cl)cc4)CC3)cc2)cc1S(=O)(=O)C(F)(F)F [AZD4320] + CN(C)CCCOc1ccc(-c2ccc3ncc4c(c3c2)n(C2CCOCC2)c(=O)n4C)cn1 [AZD0156] (first compound max 1 µM, 7x7, partner max 1 µM) by its Bliss excess when you get a moment.
A

Hi, small favor: classify COc1cccc(OCCCN)c1-c1cc(Nc2cnc(C#N)cn2)n[nH]1 [Prexasertib] + CCc1c2c(nc3ccc(O)cc13)-c1cc3c(c(=O)n1C2)COC(=O)[C@]3(O)CC [SN-38] (first compound max 1 µM, 7x7, partner max 0.3 µM) by its Bliss excess when you get a moment.
C

###

Tested on: SK-GT-2 (Gastric Carcinoma)
Experiment: Bliss excess, mean over the matrix (fraction); higher = more synergy
Please provide measured Bliss excess for the entries that follow.
Keep it simple and answer with nothing but the number.

// Bliss excess lookup, compound = COc1cc2c(cc1OCCCCCOc1cc3c(cc1OC)C(=O)N1C=C(C)C[C@H]1C=N3)N=C[C@@H]1CC(C)=CN1C2=O [SG3199] + O=C(c1cc(Cc2n[nH]c(=O)c3ccccc23)ccc1F)N1CCN(C(=O)C2CC2)CC1 [Olaparib] (first compound max 0.001 µM, 7x7, partner max 10 µM) , result: -0.0066

// Bliss excess lookup, compound = CN(CCO)CC[C@H](CSc1ccccc1)Nc1ccc(S(=O)(=O)NC(=O)c2ccc(N3CCC([C@@H](O)c4ccccc4-c4ccc(Cl)cc4)CC3)cc2)cc1S(=O)(=O)C(F)(F)F [AZD4320] + CN(C)CCCOc1ccc(-c2ccc3ncc4c(c3c2)n(C2CCOCC2)c(=O)n4C)cn1 [AZD0156] (first compound max 1 µM, 7x7, partner max 1 µM) , result: 0.0006

// Bliss excess lookup, compound = Cc1c2c(nn1C)CSCc1cc(n(C)n1)CSc1cc(c3ccccc3c1)OCCCc1c(C(=O)O)n(C)c3c-2c(Cl)ccc13 [AZD5991] + Cc1cc2ncnn2cc1Nc1ncc2c(n1)n(C1CCOCC1)c(=O)n2C [AZD7648] (first compound max 1 µM, 7x7, partner max 10 µM) , result: 0.0164

// Bliss excess lookup, compound = Cc1cc2ncnn2cc1Nc1ncc2c(n1)n(C1CCOCC1)c(=O)n2C [AZD7648] + C[C@@H]1COCCN1C2=NC(=NC(=C2)C3(CC3)[S@](=N)(=O)C)C4=C5C=CNC5=NC=C4 [AZD6738] (first compound max 10 µM, 7x7, partner max 10 µM) , result: -0.0034

// Bliss excess lookup, compound = COc1nnc2ccc(N3CCC(c4ccc(OCCN5CCN(C)C(=O)[C@H]5C)cc4)CC3)nn12 [AZD5153] + CCN(CCO)CCCOc1ccc2c(Nc3cc(CC(=O)Nc4cccc(F)c4)[nH]n3)ncnc2c1 [AZD2811] (first compound max 1 µM, 7x7, partner max 1 µM) , result: -0.0314

// Bliss excess lookup, compound = Cc1cc2ncnn2cc1Nc1ncc2c(n1)n(C1CCOCC1)c(=O)n2C [AZD7648] + O=C(c1cc(Cc2n[nH]c(=O)c3ccccc23)ccc1F)N1CCN(C(=O)C2CC2)CC1 [Olaparib] (first compound max 10 µM, 7x7, partner max 10 µM) , result: -0.0297

// Bliss excess lookup, compound = C=CCn1c(=O)c2cnc(Nc3ccc(N4CCN(C)CC4)cc3)nc2n1-c1cccc(C(C)(C)O)n1 [AZD1775] + C[C@@H]1COCCN1C2=NC(=NC(=C2)C3(CC3)[S@](=N)(=O)C)C4=C5C=CNC5=NC=C4 [AZD6738] (first compound max 1 µM, partner max 10 µM) , result: -0.0189

###

System: KY821 (Acute Myeloid Leukemia)
Experiment: combination Emax (second highest fraction inhibited in the dose matrix, 72 h); higher = more inhibition; extreme values may be limits of the assay
Metric: combination Emax
Keep it simple and answer with nothing but the number.

// combination Emax (KY821 (Acute Myeloid Leukemia)) for Cc1c2c(nn1C)CSCc1cc(n(C)n1)CSc1cc(c3ccccc3c1)OCCCc1c(C(=O)O)n(C)c3c-2c(Cl)ccc13 [AZD5991] + Cn1cnc2c(F)c(Nc3ccc(Br)cc3Cl)c(C(=O)NOCCO)cc21 [Selumetinib] (first compound max 1 µM, 7x7, partner max 3 µM) = 1

// combination Emax (KY821 (Acute Myeloid Leukemia)) for Cc1cc2ncnn2cc1Nc1ncc2c(n1)n(C1CCOCC1)c(=O)n2C [AZD7648] + C=CCn1c(=O)c2cnc(Nc3ccc(N4CCN(C)CC4)cc3)nc2n1-c1cccc(C(C)(C)O)n1 [AZD1775] (first compound max 10 µM, partner max 1 µM) = 0.994

// combination Emax (KY821 (Acute Myeloid Leukemia)) for CC1(C)CCC(CN2CCN(c3ccc(C(=O)NS(=O)(=O)c4ccc(NCC5CCOCC5)c([N+](=O)[O-])c4)c(Oc4cnc5[nH]ccc5c4)c3)CC2)=C(c2ccc(Cl)cc2)C1 [Venetoclax] + C1CN(CCC1(C(=O)N[C@@H](CCO)C2=CC=C(C=C2)Cl)N)C3=NC=NC4=C3C=CN4 [Capivasertib] (first compound max 1 µM, 7x7, partner max 3 µM) = 1

// combination Emax (KY821 (Acute Myeloid Leukemia)) for COc1cccc(OCCCN)c1-c1cc(Nc2cnc(C#N)cn2)n[nH]1 [Prexasertib] + C=CCn1c(=O)c2cnc(Nc3ccc(N4CCN(C)CC4)cc3)nc2n1-c1cccc(C(C)(C)O)n1 [AZD1775] (first compound max 1 µM, partner max 1 µM) = 1

// combination Emax (KY821 (Acute Myeloid Leukemia)) for C=CCn1c(=O)c2cnc(Nc3ccc(N4CCN(C)CC4)cc3)nc2n1-c1cccc(C(C)(C)O)n1 [AZD1775] + O=C(c1cc(Cc2n[nH]c(=O)c3ccccc23)ccc1F)N1CCN(C(=O)C2CC2)CC1 [Olaparib] (first compound max 1 µM, partner max 10 µM) = 1

// combination Emax (KY821 (Acute Myeloid Leukemia)) for CC1(C)CCC(CN2CCN(c3ccc(C(=O)NS(=O)(=O)c4ccc(NCC5CCOCC5)c([N+](=O)[O-])c4)c(Oc4cnc5[nH]ccc5c4)c3)CC2)=C(c2ccc(Cl)cc2)C1 [Venetoclax] + Cn1cnc2c(F)c(Nc3ccc(Br)cc3Cl)c(C(=O)NOCCO)cc21 [Selumetinib] (first compound max 1 µM, 7x7, partner max 3 µM) = 1

// combination Emax (KY821 (Acute Myeloid Leukemia)) for Cc1nc(Nc2ncc(C(=O)Nc3c(C)cccc3Cl)s2)cc(N2CCN(CCO)CC2)n1 [Dasatinib] + CC(=O)Nc1cccc(-n2c(=O)n(C3CC3)c(=O)c3c(Nc4ccc(I)cc4F)n(C)c(=O)c(C)c32)c1 [Trametinib] (first compound max 2 µM, 7x7, partner max 1 µM) = 0.691
